STUDY_SYSTEM: bovine thrombin (Bos taurus, UniProt P00735)
MEASUREMENT_DESCRIPTION: Antithrombin activity: inhibition of fibrin formation from fibrinogen
Type: biochemical
The following compounds are listed with their measured IC50 values.

# annotated cases, reported IC50 shown
{"columns": ["COMPOUND", "IC50"],
 "data": [
  ["NCc1ccc(C(=O)N[C@@H](Cc2ccc(OCc3ccccc3)cc2)C(=O)Nc2ccc(C(=O)O)cc2)cc1", "> 1000 µM"],
  ["CC(=O)c1ccc(NC(=O)[C@H](Cc2ccc(OCc3ccncc3)cc2)NC(=O)[C@H]2CC[C@H](CN)CC2)cc1", "> 500 µM"],
  ["CC1CCC(NC(=O)C(Cc2ccc(OCc3cccc(Cl)c3)cc2)NC(=O)C2CCC(CN)CC2)CC1C (stereo not shown)", "> 50 µM"]
]}

Now look at this entry.
Data request: I'd like to know its IC50. The compound in question is NC[C@H]1CC[C@H](C(=O)N[C@@H](Cc2ccc(OCc3cccc(Cl)c3)cc2)C(=O)Nc2ccc(C(=O)c3ccccc3)cc2)CC1
Data returned: > 20 µM
